For each of the molecules below, state its melting point.

Q) Look up and state reported melting point for O=C1NN(C(=O)c2ccccc2)C(c2ccc(Cl)c(Cl)c2)=CC1=Cc1cccc([N+](=O)[O-])c1
A) 150 to 152 °C

Q) Look up and state reported melting point for O=C1NC(c2ccc(Cl)c(Cl)c2)=CC1=Cc1cccc([N+](=O)[O-])c1
A) > 300 °C

Q) Look up and state reported melting point for NNC(=O)C(=Cc1cccc([N+](=O)[O-])c1)CC(=O)c1ccc(Cl)c(Cl)c1
A) 160 to 162 °C

Q) Look up and state reported melting point for O=C1NN(c2ccccc2)C(c2ccc(Cl)c(Cl)c2)=CC1=Cc1cccc([N+](=O)[O-])c1
A) > 300 °C

Q) Look up and state reported melting point for CN(C)c1ccc(C=C(CC(=O)c2ccc(Cl)c(Cl)c2)C(=O)NCc2ccccc2)cc1
A) 241 to 243 °C

Q) Look up and state reported melting point for CN(C)c1ccc(C=C2C=C(c3ccc(Cl)c(Cl)c3)N(c3ccccc3)NC2=O)cc1
A) > 300 °C

Q) Look up and state reported melting point for O=C1NC(c2ccc(Cl)c(Cl)c2)=CC1=Cc1ccccc1[N+](=O)[O-]
A) > 300 °C

Q) Look up and state reported melting point for CN(C)c1ccc(C=C2C=C(c3ccc(Cl)c(Cl)c3)NC2=O)cc1
A) > 300 °C

* * *

For each of the compounds below, state its pIC50.
Keep it numeric: pIC50 is minus log10 of the concentration in mol/L.

Q) Give measured pIC50 for O=C1NN(C(=O)c2ccccc2)C(c2ccc(Cl)c(Cl)c2)=CC1=Cc1cccc([N+](=O)[O-])c1 [Compound 8b] (UniProt:P08170).
Sequence (P08170 whole entry): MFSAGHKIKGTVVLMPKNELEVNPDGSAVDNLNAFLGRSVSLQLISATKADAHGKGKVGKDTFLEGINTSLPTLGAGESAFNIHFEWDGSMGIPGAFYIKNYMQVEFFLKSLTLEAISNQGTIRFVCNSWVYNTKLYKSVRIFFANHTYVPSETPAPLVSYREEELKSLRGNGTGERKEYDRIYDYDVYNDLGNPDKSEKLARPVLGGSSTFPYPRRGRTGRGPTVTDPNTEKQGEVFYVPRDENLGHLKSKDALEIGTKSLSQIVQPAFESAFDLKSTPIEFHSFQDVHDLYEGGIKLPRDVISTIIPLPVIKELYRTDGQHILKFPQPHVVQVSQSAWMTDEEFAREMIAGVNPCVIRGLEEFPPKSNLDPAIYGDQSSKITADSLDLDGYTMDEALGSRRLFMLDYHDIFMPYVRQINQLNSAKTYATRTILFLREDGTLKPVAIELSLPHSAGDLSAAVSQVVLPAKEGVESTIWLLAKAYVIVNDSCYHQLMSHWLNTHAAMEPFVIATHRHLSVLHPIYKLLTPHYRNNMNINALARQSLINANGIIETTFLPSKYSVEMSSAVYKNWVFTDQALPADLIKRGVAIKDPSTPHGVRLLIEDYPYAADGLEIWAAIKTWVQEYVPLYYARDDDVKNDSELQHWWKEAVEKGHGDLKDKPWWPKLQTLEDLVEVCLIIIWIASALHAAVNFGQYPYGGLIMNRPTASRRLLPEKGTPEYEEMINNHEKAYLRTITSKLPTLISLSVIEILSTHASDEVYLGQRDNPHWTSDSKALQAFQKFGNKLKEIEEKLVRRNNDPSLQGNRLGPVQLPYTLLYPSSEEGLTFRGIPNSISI
A) 5.61

Q) Give measured pIC50 for O=C1OC(c2ccc(Cl)c(Cl)c2)=CC1=Cc1ccccc1[N+](=O)[O-] [Compound 2a] (UniProt:P08170).
A) 5.29

Q) Give measured pIC50 for O=C1NN(c2ccccc2)C(c2ccc(Cl)c(Cl)c2)=CC1=Cc1ccccc1[N+](=O)[O-] [Compound 5a] (UniProt:P08170).
A) 5.57

Q) Give measured pIC50 for O=C1NN(C(=O)c2ccccc2)C(c2ccc(Cl)c(Cl)c2)=CC1=Cc1ccccc1[N+](=O)[O-] [Compound 8a] (UniProt:P08170).
A) 5.63

* * *

For each of the molecules below, state its pIC50.
target: COX-1 (Ovis aries); assay: Cyclooxygenase COX-1 inhibition assay (Cayman COX inhibitor screening kit, EIA)
Keep it numeric: pIC50 is minus log10 of the concentration in mol/L.

Q) Give measured pIC50 for O=C1NN(c2ccccc2)C(c2ccc(Cl)c(Cl)c2)=CC1=Cc1ccccc1[N+](=O)[O-] (COX-1 (Ovis aries)).
A) 4.90

Q) Give measured pIC50 for CN(C)c1ccc(C=C2C=C(c3ccc(Cl)c(Cl)c3)N(c3ccccc3)NC2=O)cc1 (COX-1 (Ovis aries)).
A) 4.93

Q) Give measured pIC50 for O=C(NCc1ccccc1)C(=Cc1ccccc1[N+](=O)[O-])CC(=O)c1ccc(Cl)c(Cl)c1 (COX-1 (Ovis aries)).
A) 4.96

Q) Give measured pIC50 for CN(C)c1ccc(C=C2C=C(c3ccc(Cl)c(Cl)c3)N(C(=O)c3ccccc3)NC2=O)cc1 (COX-1 (Ovis aries)).
A) 4.88

Q) Give measured pIC50 for O=C1NN(C(=O)c2ccccc2)C(c2ccc(Cl)c(Cl)c2)=CC1=Cc1cccc([N+](=O)[O-])c1 (COX-1 (Ovis aries)).
A) 4.90

* * *

Target: UniProt P05979
Sequence (P05979 25-600): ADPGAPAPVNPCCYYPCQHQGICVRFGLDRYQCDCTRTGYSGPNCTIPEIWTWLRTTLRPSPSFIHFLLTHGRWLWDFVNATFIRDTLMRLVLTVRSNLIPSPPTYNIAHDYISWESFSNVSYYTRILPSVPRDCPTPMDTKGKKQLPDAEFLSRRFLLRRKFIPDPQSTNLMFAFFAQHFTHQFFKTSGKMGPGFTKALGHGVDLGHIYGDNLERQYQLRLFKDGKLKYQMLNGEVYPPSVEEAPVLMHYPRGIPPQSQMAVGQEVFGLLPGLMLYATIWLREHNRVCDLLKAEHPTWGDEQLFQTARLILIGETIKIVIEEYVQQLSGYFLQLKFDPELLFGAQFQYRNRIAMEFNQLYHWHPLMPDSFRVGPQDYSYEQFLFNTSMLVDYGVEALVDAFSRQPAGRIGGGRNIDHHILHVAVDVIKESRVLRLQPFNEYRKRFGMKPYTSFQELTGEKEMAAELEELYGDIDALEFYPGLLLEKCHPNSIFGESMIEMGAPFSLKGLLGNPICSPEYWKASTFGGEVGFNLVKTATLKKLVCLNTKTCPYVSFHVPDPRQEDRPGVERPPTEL
Experiment: Cyclooxygenase COX-1 inhibition assay (Cayman COX inhibitor screening kit, EIA)
Value Kind: pIC50
Keep it numeric: pIC50 is minus log10 of the concentration in mol/L.

Q) Look up and state reported pIC50 for CN(C)c1ccc(C=C2C=C(c3ccc(Cl)c(Cl)c3)OC2=O)cc1 [Compound 2c]
A) 5.41

Q) Look up and state reported pIC50 for CN(C)c1ccc(C=C2C=C(c3ccc(Cl)c(Cl)c3)NC2=O)cc1 [Compound 3c]
A) 5.23

Q) Look up and state reported pIC50 for CN(C)c1ccc(C=C(CC(=O)c2ccc(Cl)c(Cl)c2)C(=O)NN)cc1 [Compound 6c]
A) 5.05

Q) Look up and state reported pIC50 for O=C1NN(C(=O)c2ccccc2)C(c2ccc(Cl)c(Cl)c2)=CC1=Cc1ccccc1[N+](=O)[O-] [Compound 8a]
A) 4.97

Q) Look up and state reported pIC50 for CN(C)c1ccc(C=C(CC(=O)c2ccc(Cl)c(Cl)c2)c2n[nH]c(=S)o2)cc1 [Compound 9c]
A) 5.05

Q) Look up and state reported pIC50 for O=C1OC(c2ccc(Cl)c(Cl)c2)=CC1=Cc1ccccc1[N+](=O)[O-] [Compound 2a]
A) 5.34

Q) Look up and state reported pIC50 for O=C1NN(c2ccccc2)C(c2ccc(Cl)c(Cl)c2)=CC1=Cc1cccc([N+](=O)[O-])c1 [Compound 5b]
A) 4.89

Q) Look up and state reported pIC50 for NNC(=O)C(=Cc1ccccc1[N+](=O)[O-])CC(=O)c1ccc(Cl)c(Cl)c1 [Compound 6a]
A) 5.01

Q) Look up and state reported pIC50 for CN(C)c1ccc(C=C(CC(=O)c2ccc(Cl)c(Cl)c2)C(=O)NCc2ccccc2)cc1 [Compound 4c]
A) 4.92

Q) Look up and state reported pIC50 for O=C1OC(c2ccc(Cl)c(Cl)c2)=CC1=Cc1cccc([N+](=O)[O-])c1 [Compound 2b]
A) 5.16

Q) Look up and state reported pIC50 for O=C(NCc1ccccc1)C(=Cc1cccc([N+](=O)[O-])c1)CC(=O)c1ccc(Cl)c(Cl)c1 [Compound 4b]
A) 4.88

Q) Look up and state reported pIC50 for O=C(CC(=Cc1ccccc1[N+](=O)[O-])c1n[nH]c(=S)o1)c1ccc(Cl)c(Cl)c1 [Compound 9a]
A) 5.03

Q) Look up and state reported pIC50 for O=C1NC(c2ccc(Cl)c(Cl)c2)=CC1=Cc1ccccc1[N+](=O)[O-] [Compound 3a]
A) 5.08

Q) Look up and state reported pIC50 for O=C1NC(c2ccc(Cl)c(Cl)c2)=CC1=Cc1cccc([N+](=O)[O-])c1 [Compound 3b]
A) 5.16

Q) Look up and state reported pIC50 for NNC(=O)C(=Cc1cccc([N+](=O)[O-])c1)CC(=O)c1ccc(Cl)c(Cl)c1 [Compound 6b]
A) 5.00

Q) Look up and state reported pIC50 for O=C(CC(=Cc1cccc([N+](=O)[O-])c1)c1n[nH]c(=S)o1)c1ccc(Cl)c(Cl)c1 [Compound 9b]
A) 4.98

* * *

Value Kind: melting point

Q) Look up and state reported melting point for O=C(CC(=Cc1ccccc1[N+](=O)[O-])c1n[nH]c(=S)o1)c1ccc(Cl)c(Cl)c1
A) 214 to 216 °C

Q) Look up and state reported melting point for CN(C)c1ccc(C=C(CC(=O)c2ccc(Cl)c(Cl)c2)c2n[nH]c(=S)o2)cc1
A) 162 to 164 °C

Q) Look up and state reported melting point for CN(C)c1ccc(C=C2C=C(c3ccc(Cl)c(Cl)c3)N(C(=O)c3ccccc3)NC2=O)cc1
A) 229 to 231 °C

Q) Look up and state reported melting point for NNC(=O)C(=Cc1ccccc1[N+](=O)[O-])CC(=O)c1ccc(Cl)c(Cl)c1
A) 164 to 166 °C

Q) Look up and state reported melting point for O=C(NCc1ccccc1)C(=Cc1ccccc1[N+](=O)[O-])CC(=O)c1ccc(Cl)c(Cl)c1
A) 250 to 252 °C

Q) Look up and state reported melting point for O=C(NCc1ccccc1)C(=Cc1cccc([N+](=O)[O-])c1)CC(=O)c1ccc(Cl)c(Cl)c1
A) 124 to 126 °C

Q) Look up and state reported melting point for O=C1OC(c2ccc(Cl)c(Cl)c2)=CC1=Cc1cccc([N+](=O)[O-])c1
A) 230 to 232 °C

Q) Look up and state reported melting point for CN(C)c1ccc(C=C(CC(=O)c2ccc(Cl)c(Cl)c2)C(=O)NN)cc1
A) 154 to 156 °C
